# Tested on: GT-1a of NS5A Replicon
# Experiment summary: HCV double reporter gene (Renilla luciferase) replicon assay, GT-1a
# Format: cell-based, Hepatitis C virus (HCV)
# Conditions used: Hepatitis C virus, GT1A, GT-1a replicon; class symbols; read-out: EC50 For GT-1a of NS5A Replicon
Listing of recorded EC50 by entry.
Endpoint label: EC50

[[record]]
compound = "COC(=O)N[C@H](C(=O)N1CC=C[C@H]1c1ncc(-c2ccc(-c3ccc(-c4cnc([C@@H]5CCCN5C(=O)[C@@H](NC(=O)OC)C5CCCC5)[nH]4)cc3)cc2)[nH]1)C1CCCC1"
test_target = "GT-1a of NS5A Replicon"
measured = "0.001 to 0.999 nM"

[[record]]
compound = "COC(=O)N[C@H](C(=O)N1CN(C(=O)N2Cc3cc4c(cc3C2)OCO4)C[C@H]1c1ncc(-c2ccc(-c3cccc4c(-c5cnc([C@@H]6CCCN6C(=O)[C@@H](NC(=O)OC)C(C)C)[nH]5)cccc34)cc2)[nH]1)C(C)C"
test_target = "GT-1a of NS5A Replicon"
measured = "> 50 nM"

[[record]]
compound = "COC(=O)N[C@H](C(=O)N1CN(C(=O)N2Cc3cccc(F)c3C2)CC1c1nc(-c2ccc(-c3ccc(-c4c[nH]c([C@@H]5CCCN5C(=O)[C@@H](NC(=O)OC)C(C)C)n4)cc3)cc2)c[nH]1)C(C)C (stereo partly drawn)"
test_target = "GT-1a of NS5A Replicon"
measured = "0.001 to 0.999 nM"

[[record]]
compound = "COC(=O)N[C@@H](C(=O)N1CC=CC1c1nc(-c2ccc(-c3cc4sc(-c5c[nH]c(C6C=CCN6C(=O)[C@H](NC(=O)OC)c6ccccc6)n5)cc4s3)cc2)c[nH]1)c1ccccc1 (stereo partly drawn)"
test_target = "GT-1a of NS5A Replicon"
measured = "0.001 to 0.999 nM"

[[record]]
compound = "COC(=O)N[C@H](C(=O)N1CN(C(=O)N2Cc3cc4c(cc3C2)OCO4)CC1c1nc(-c2ccc(-c3ccc(-c4c[nH]c([C@@H]5CC6(CC6)CN5C(=O)[C@@H](NC(=O)OC)C(C)C)n4)cc3)cc2)c[nH]1)C(C)C (stereo partly drawn)"
test_target = "GT-1a of NS5A Replicon"
measured = "0.001 to 0.999 nM"

[[record]]
compound = "COC(=O)N[C@H](C(=O)N1CCCC1c1nc(-c2ccc(-c3ccc(-c4c[nH]c(C5C=CCN5C(=O)[C@H](NC(=O)OC)c5ccccc5)n4)cc3)cc2)c[nH]1)C(C)C (stereo partly drawn)"
test_target = "GT-1a of NS5A Replicon"
measured = "0.001 to 0.999 nM"

[[record]]
compound = "COC(=O)N[C@@H](C(=O)N1CC=C[C@H]1c1ncc(-c2ccc(-c3ccc(-c4c[nH]c([C@@H]5CCCN5C(=O)[C@H](NC(=O)OC)c5ccccc5)n4)cc3)cc2)[nH]1)c1ccccc1"
test_target = "GT-1a of NS5A Replicon"
measured = "0.001 to 0.999 nM"

[[record]]
compound = "COC(=O)N[C@@H](C(=O)N1CC=CC1c1nc(-c2ccc(-c3ccc(-c4c[nH]c(C5CCCN5C(=O)[C@H](NC(=O)OC)c5ccccc5)n4)cc3)cc2)c[nH]1)c1ccccc1 (stereo partly drawn)"
test_target = "GT-1a of NS5A Replicon"
measured = "0.001 to 0.999 nM"

[[record]]
compound = "COC(=O)N[C@H](C(=O)N1CC=C[C@H]1c1ncc(-c2ccc(-c3ccc(-c4cnc([C@@H]5CN(C(=O)OC(C)(C)C)CN5C(=O)[C@@H](NC(=O)OC)C5CCCCC5)[nH]4)cc3)cc2)[nH]1)C(C)C"
test_target = "GT-1a of NS5A Replicon"
measured = "0.001 to 0.999 nM"


----------
# Tested on: GT-1a of NS5A Replicon
# Experiment summary: HCV double reporter gene (Renilla luciferase) replicon assay, GT-1a
# Format: cell-based, Hepatitis C virus (HCV)
# Conditions used: Hepatitis C virus, GT1A, GT-1a replicon; class symbols; read-out: EC50 For GT-1a of NS5A Replicon
Listing of recorded EC50 by entry.
Endpoint label: EC50

[[record]]
molecule = "COC(=O)N[C@H](C(=O)N1CCC[C@H]1c1ncc(-c2ccc(-c3ccc(-c4cnc([C@@H]5CN(C(=O)N6Cc7ccc(OC)c(OC)c7C6)CN5C(=O)[C@@H](NC(=O)OC)C(C)C)[nH]4)cc3)cc2)[nH]1)C(C)C [Compound 6cq]"
measured = "1 to 49.9 nM"

[[record]]
molecule = "COC(=O)N[C@H](C(=O)N1CC=CC1c1nc(-c2ccc(-c3ccc(-c4c[nH]c([C@@H]5CCCN5C(=O)C5(NC(=O)OC)CC5)n4)cc3)cc2)c[nH]1)C(C)C (stereo partly drawn) [Compound 6bh]"
measured = "0.001 to 0.999 nM"

[[record]]
molecule = "COC(=O)N[C@H](C(=O)N1CC=C[C@H]1c1nc(-c2ccc(-c3ccc(-c4cnc([C@@H]5CC6(CN5C(=O)[C@@H](NC(=O)OC)C(C)C)OCCO6)[nH]4)cc3)cc2)c[nH]1)C(C)C [Compound 6dt]"
measured = "0.001 to 0.999 nM"


----------
Listing of recorded EC50 by entry.
# Test system: HCV NS5A Replicon GT-6a
# Experiment summary: HCV double reporter gene replicon assay, GT-6a
# Assay type: cell-based
# Conditions used: Hepatitis C virus, genotype 1a / genotype 6a; GT-6a replicon
Endpoint label: EC50

[[record]]
compound = "COC(=O)N[C@H](C(=O)N1CCC[C@H]1c1nc(-c2ccc(-c3ccc(-c4cnc([C@@H]5C=CCN5C(=O)[C@H](NC(=O)OC)c5ccccc5)[nH]4)cc3)cc2)c[nH]1)C(C)C"
endpoint_label = "EC50"
measured = "24 pM"

[[record]]
compound = "COC(=O)N[C@H](C(=O)N1CCC[C@H]1c1nc(-c2ccc(-c3ccc(-c4c[nH]c([C@@H]5CCCN5C(=O)[C@@H](NC(=O)OC)C(C)C)n4)cc3)cc2)c[nH]1)C(C)C [Ref-1, reference compound]"
endpoint_label = "EC50"
measured = "118 pM"

[[record]]
compound = "COC(=O)N[C@H](C(=O)N1CC=C[C@H]1c1ncc(-c2ccc(-c3cc4sc(-c5cnc([C@@H]6CCCN6C(=O)[C@H](NC(=O)OC)c6ccccc6)[nH]5)cc4s3)cc2)[nH]1)C(C)C"
endpoint_label = "EC50"
measured = "55 pM"

[[record]]
compound = "COC(=O)N[C@@H](C(=O)N1CC=CC1c1nc(-c2ccc(-c3cc4sc(-c5c[nH]c(C6CCCN6C(=O)[C@H](NC(=O)OC)c6ccccc6)n5)cc4s3)cc2)c[nH]1)c1ccccc1 (stereo partly drawn)"
endpoint_label = "EC50"
measured = "111 pM"

[[record]]
compound = "COC(=O)N[C@H](C(=O)N1CC=C[C@H]1c1ncc(-c2ccc(-c3ccc(-c4c[nH]c([C@@H]5CCCN5C(=O)[C@@H](NC(=O)OC)C(C)C)n4)cc3)cc2)[nH]1)C(C)C"
endpoint_label = "EC50"
measured = "221 pM"

[[record]]
compound = "COC(=O)N[C@H](C(=O)N1CCC[C@H]1c1ncc(-c2ccc(-c3cc4sc(-c5cnc([C@@H]6C=CCN6C(=O)[C@H](NC(=O)OC)c6ccccc6)[nH]5)cc4s3)cc2)[nH]1)C(C)C"
endpoint_label = "EC50"
measured = "23 pM"


----------
Listing of recorded EC50 by entry.
# Tested on: GT-1a of NS5A Replicon
# Experiment summary: HCV double reporter gene (Renilla luciferase) replicon assay, GT-1a
# Format: cell-based, Hepatitis C virus (HCV)
# Conditions used: Hepatitis C virus, GT1A, GT-1a replicon; class symbols; read-out: EC50 For GT-1a of NS5A Replicon
Endpoint label: EC50

[[record]]
molecule = "COC(=O)N[C@H](C(=O)N1CCC[C@H]1c1nc(-c2ccc(-c3ccc(-c4cnc([C@@H]5C[C@@H](OC(=O)N6Cc7cccc(F)c7C6)CN5C(=O)[C@@H](NC(=O)OC)C(C)C)[nH]4)cc3)cc2)c[nH]1)C(C)C [Compound 6s]"
test_target = "GT-1a of NS5A Replicon"
measured = "0.001 to 0.999 nM"

[[record]]
molecule = "COC(=O)N[C@H](C(=O)N1CC=CC1c1nc(-c2ccc(-c3ccc(-c4c[nH]c([C@@H]5CCCN5C(=O)C5(NC(=O)OC)CCCC5)n4)cc3)cc2)c[nH]1)C(C)C (some centres unmarked) [Compound 6bi]"
test_target = "GT-1a of NS5A Replicon"
measured = "0.001 to 0.999 nM"

[[record]]
molecule = "COC(=O)N[C@@H](C(=O)N1CC=C[C@H]1c1ncc(-c2ccc(-c3cc4sc(-c5cnc([C@@H]6CCCN6C(=O)[C@H](NC(=O)OC)c6ccccc6)[nH]5)cc4s3)cc2)[nH]1)c1ccccc1 [Compound 6fh]"
test_target = "GT-1a of NS5A Replicon"
measured = "0.001 to 0.999 nM"

[[record]]
molecule = "COC(=O)N[C@H](C(=O)N1CC=C[C@H]1c1ncc(-c2ccc(-c3ccc(-c4cnc([C@@H]5CNCN5C(=O)[C@@H](NC(=O)OC)C(C)C)[nH]4)cc3)cc2)[nH]1)C(C)C [Compound 6cv]"
test_target = "GT-1a of NS5A Replicon"
measured = "0.001 to 0.999 nM"

[[record]]
molecule = "COC(=O)N[C@H](C(=O)N1CN(C(=O)N2Cc3cc4c(cc3C2)OCO4)CC1c1nc(-c2cc3sc(-c4ccc(-c5c[nH]c([C@@H]6CCCN6C(=O)[C@@H](NC(=O)OC)C(C)C)n5)cc4)cc3s2)c[nH]1)C(C)C (some centres unmarked) [Compound 6fa]"
test_target = "GT-1a of NS5A Replicon"
measured = "0.001 to 0.999 nM"

[[record]]
molecule = "COC(=O)N[C@H](C(=O)N1CCCC1c1nc2cc(-c3ccc4c(c3)C(F)(F)c3cc(-c5c[nH]c([C@@H]6CN(C(=O)N7Cc8cc9c(cc8C7)OCO9)CN6C(=O)[C@@H](NC(=O)OC)C(C)C)n5)ccc3-4)ccc2[nH]1)C(C)C (some centres unmarked) [Compound 6bs]"
test_target = "GT-1a of NS5A Replicon"
measured = "> 50 nM"

[[record]]
molecule = "COC(=O)N[C@H](C(=O)N1CCCC1c1nc(-c2ccc(-c3ccc(-c4c[nH]c([C@@H]5CCCN5C(=O)C5(NC(=O)OC)CCCCC5)n4)cc3)cc2)c[nH]1)C(C)C (some centres unmarked) [Compound 6aa]"
test_target = "GT-1a of NS5A Replicon"
measured = "0.001 to 0.999 nM"

[[record]]
molecule = "COC(=O)N[C@H](C(=O)N1CCC(O)[C@H]1c1ncc(-c2ccc(-c3ccc(-c4cnc([C@@H]5C=CCN5C(=O)[C@@H](NC(=O)OC)C(C)C)[nH]4)cc3)cc2)[nH]1)C(C)C (some centres unmarked) [Compound 6dr]"
test_target = "GT-1a of NS5A Replicon"
measured = "0.001 to 0.999 nM"

[[record]]
molecule = "CC(C)[C@H](NC(=O)OC(C)(C)C)C(=O)N1CCC[C@H]1c1nc(-c2ccc(-c3ccc(-c4cnc([C@@H]5C[C@@H](OC(=O)N6Cc7ccc8c(c7C6)OCO8)CN5C(=O)[C@@H](NC(=O)OC(C)(C)C)C(C)C)[nH]4)cc3)cc2)c[nH]1 [Compound 6b]"
test_target = "GT-1a of NS5A Replicon"
measured = "> 50 nM"

[[record]]
molecule = "COC(=O)N[C@H](C(=O)N1CC(OC(=O)N2Cc3cc4c(cc3C2)OCO4)CC1c1nc(-c2ccc(-c3cccc4c(-c5c[nH]c([C@@H]6CCCN6C(=O)[C@@H](NC(=O)OC)C(C)C)n5)cccc34)cc2)c[nH]1)C(C)C (some centres unmarked) [Compound 6bu]"
test_target = "GT-1a of NS5A Replicon"
measured = "0.001 to 0.999 nM"

[[record]]
molecule = "COC(=O)N[C@H](C(=O)N1CC=C[C@H]1c1ncc(-c2ccc(-c3ccc(-c4cnc([C@@H]5C=CCN5C(=O)[C@@H](NC(=O)OC)C5CCCCC5)[nH]4)cc3)cc2)[nH]1)C1CCCCC1 [Compound 6dm]"
test_target = "GT-1a of NS5A Replicon"
measured = "0.001 to 0.999 nM"

[[record]]
molecule = "COC(=O)N[C@H](C(=O)N1CN(C(=O)N2Cc3ccccc3C2)CC1c1nc(-c2ccc(-c3ccc(-c4c[nH]c([C@@H]5CCCN5C(=O)[C@@H](NC(=O)OC)C(C)C)n4)cc3)cc2)c[nH]1)C(C)C (some centres unmarked) [Compound 6aq]"
test_target = "GT-1a of NS5A Replicon"
measured = "0.001 to 0.999 nM"

[[record]]
molecule = "COC(=O)N[C@H](C(=O)N1CCCC1c1ncc(-c2ccc3c(c2)cc2n3C(c3ccccc3)Oc3cc(-c4cnc([C@@H]5C=CCN5C(=O)[C@@H](NC(=O)OC)C(C)C)[nH]4)ccc3-2)[nH]1)C(C)C (some centres unmarked) [Compound 6cd]"
test_target = "GT-1a of NS5A Replicon"
measured = "> 50 nM"

[[record]]
molecule = "COC(=O)N[C@H](C(=O)N1CN(C(=O)N2Cc3ccc(Cl)cc3C2)CC1c1nc(-c2ccc(-c3ccc(-c4c[nH]c([C@@H]5CCCN5C(=O)[C@@H](NC(=O)OC)C(C)C)n4)cc3)cc2)c[nH]1)C(C)C (some centres unmarked) [Compound 6au]"
test_target = "GT-1a of NS5A Replicon"
measured = "0.001 to 0.999 nM"

[[record]]
molecule = "COC(=O)N[C@H](C(=O)N1C[C@H](OC(=O)N2Cc3ccc4c(c3C2)OCO4)CC1c1ncc(-c2ccc(-c3ccc(-c4c[nH]c([C@@H]5CCCN5C(=O)[C@@H](NC(=O)OC)C(C)C)n4)cc3)cc2)[nH]1)C(C)C (some centres unmarked) [Compound 6a]"
test_target = "GT-1a of NS5A Replicon"
measured = "0.001 to 0.999 nM"

[[record]]
molecule = "COC(=O)N[C@H](C(=O)N1CC=C[C@H]1c1ncc(-c2cc3sc(-c4ccc(-c5cnc([C@@H]6CCCN6C(=O)[C@H](NC(=O)OC)c6ccccc6)[nH]5)cc4)cc3s2)[nH]1)C(C)C [Compound 6fp]"
test_target = "GT-1a of NS5A Replicon"
measured = "0.001 to 0.999 nM"

[[record]]
molecule = "COC(=O)NC(C(=O)N1CCC[C@H]1c1nc(-c2cc3sc(-c4ccc(-c5c[nH]c(C6CN(C(=O)N7Cc8cc9c(cc8C7)OCO9)CN6C(=O)[C@@H](NC(=O)OC)C(C)C)n5)cc4)cc3s2)c[nH]1)c1ccccc1 (some centres unmarked) [Compound 6fb]"
test_target = "GT-1a of NS5A Replicon"
measured = "0.001 to 0.999 nM"

